These measurements were taken from the NIST ThermoML archive (doi:10.1021/je060238o).

experimental.protocol: refractive index (Na D-line) (dimensionless)
condition.parameters: 298.15 K; 101.33 kPa; Liquid; Standard Abbe refractometry
Recorded refractive index, one value per entry.
Kindly provide the number alone.

{"compound": "CCC(C)CO (centres undefined) [2-methyl-1-butanol]", "measurement.name": "refractive index", "measured.number": 1.40872}

Q. What value of measured refractive index is listed for CC(C)CCO [3-methylbutan-1-ol] ?
A. 1.40515

Q. Which value of refractive index has been reported for CC(C)CO [2-methyl-1-propanol] in the records?
A. 1.3937

Q. So what's the measured refractive index for this one? CCCCCO [pentan-1-ol]
A. 1.4077
